- Assay Comment: activity coefficient (dimensionless); of the first substance listed, at infinite dilution; xn = mol fraction of the nth substance listed
- Recorded Conditions: 338.15 K; 101 kPa; Liquid; Chromatography; x1 = 0
Property Name: activity coefficient

[[record]]
compound = "c1ccsc1 [thiophene] + CC[S+](CC)CC.O=S(=O)([N-]S(=O)(=O)C(F)(F)F)C(F)(F)F"
property_name = "activity coefficient"
reported_result = 0.958

[[record]]
compound = "C=CCCCC [hex-1-ene] + CC[S+](CC)CC.O=S(=O)([N-]S(=O)(=O)C(F)(F)F)C(F)(F)F"
property_name = "activity coefficient"
reported_result = 10.1

[[record]]
compound = "CCCCCCCC [octane] + CC[S+](CC)CC.O=S(=O)([N-]S(=O)(=O)C(F)(F)F)C(F)(F)F"
property_name = "activity coefficient"
reported_result = 39.6

[[record]]
compound = "C=CCCCCC [1-heptene] + CC[S+](CC)CC.O=S(=O)([N-]S(=O)(=O)C(F)(F)F)C(F)(F)F"
property_name = "activity coefficient"
reported_result = 14.4

[[record]]
compound = "CCCCO [butan-1-ol] + CC[S+](CC)CC.O=S(=O)([N-]S(=O)(=O)C(F)(F)F)C(F)(F)F"
property_name = "activity coefficient"
reported_result = 2.41

[[record]]
compound = "C1CCCCCC1 [cycloheptane] + CC[S+](CC)CC.O=S(=O)([N-]S(=O)(=O)C(F)(F)F)C(F)(F)F"
property_name = "activity coefficient"
reported_result = 15.2

[[record]]
compound = "Cc1ccccc1C [1,2-dimethylbenzene] + CC[S+](CC)CC.O=S(=O)([N-]S(=O)(=O)C(F)(F)F)C(F)(F)F"
property_name = "activity coefficient"
reported_result = 2.1

[[record]]
compound = "Cc1ccc(C)cc1 [1,4-dimethylbenzene] + CC[S+](CC)CC.O=S(=O)([N-]S(=O)(=O)C(F)(F)F)C(F)(F)F"
property_name = "activity coefficient"
reported_result = 2.34

[[record]]
compound = "C1CCCC1 [cyclopentane] + CC[S+](CC)CC.O=S(=O)([N-]S(=O)(=O)C(F)(F)F)C(F)(F)F"
property_name = "activity coefficient"
reported_result = 8.17

[[record]]
compound = "CCCCCC [hexane] + CC[S+](CC)CC.O=S(=O)([N-]S(=O)(=O)C(F)(F)F)C(F)(F)F"
property_name = "activity coefficient"
reported_result = 20.7

[[record]]
compound = "Cc1ccccc1 [toluene] + CC[S+](CC)CC.O=S(=O)([N-]S(=O)(=O)C(F)(F)F)C(F)(F)F"
property_name = "activity coefficient"
reported_result = 1.62

[[record]]
compound = "CO [methanol] + CC[S+](CC)CC.O=S(=O)([N-]S(=O)(=O)C(F)(F)F)C(F)(F)F"
property_name = "activity coefficient"
reported_result = 1.15

[[record]]
compound = "C#CCCCCC [1-heptyne] + CC[S+](CC)CC.O=S(=O)([N-]S(=O)(=O)C(F)(F)F)C(F)(F)F"
property_name = "activity coefficient"
reported_result = 5.08

[[record]]
compound = "CCCCCCC [heptane] + CC[S+](CC)CC.O=S(=O)([N-]S(=O)(=O)C(F)(F)F)C(F)(F)F"
property_name = "activity coefficient"
reported_result = 28.1

[[record]]
compound = "C1CCOC1 [tetrahydrofuran] + CC[S+](CC)CC.O=S(=O)([N-]S(=O)(=O)C(F)(F)F)C(F)(F)F"
property_name = "activity coefficient"
reported_result = 0.846

[[record]]
compound = "CCc1ccccc1 [ethylbenzene] + CC[S+](CC)CC.O=S(=O)([N-]S(=O)(=O)C(F)(F)F)C(F)(F)F"
property_name = "activity coefficient"
reported_result = 2.44

[[record]]
compound = "Cc1cccc(C)c1 [1,3-dimethylbenzene] + CC[S+](CC)CC.O=S(=O)([N-]S(=O)(=O)C(F)(F)F)C(F)(F)F"
property_name = "activity coefficient"
reported_result = 2.34

[[record]]
compound = "c1ccccc1 [benzene] + CC[S+](CC)CC.O=S(=O)([N-]S(=O)(=O)C(F)(F)F)C(F)(F)F"
property_name = "activity coefficient"
reported_result = 1.13

[[record]]
compound = "CCCCC [pentane] + CC[S+](CC)CC.O=S(=O)([N-]S(=O)(=O)C(F)(F)F)C(F)(F)F"
property_name = "activity coefficient"
reported_result = 15.6

[[record]]
compound = "CCCCCCCCCC [decane] + CC[S+](CC)CC.O=S(=O)([N-]S(=O)(=O)C(F)(F)F)C(F)(F)F"
property_name = "activity coefficient"
reported_result = 80

[[record]]
compound = "C=CCCC [1-pentene] + CC[S+](CC)CC.O=S(=O)([N-]S(=O)(=O)C(F)(F)F)C(F)(F)F"
property_name = "activity coefficient"
reported_result = 7.4

